system-tested: T1, Histidine-tagged human CD40 protein (hCD40-His) (human, UniProt P25942 21-193)
T1 construct: not shown: histidine tag
T1 sequence (P25942 21-193 limits assumed): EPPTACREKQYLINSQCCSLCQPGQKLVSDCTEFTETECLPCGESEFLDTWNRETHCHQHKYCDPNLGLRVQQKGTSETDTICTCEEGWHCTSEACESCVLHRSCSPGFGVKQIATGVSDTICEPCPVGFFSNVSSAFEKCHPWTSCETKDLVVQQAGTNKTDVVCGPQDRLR
experiment-notes: SPR, Biacore T200; antibody on Protein A chip, hCD40-His injected; 1:1 fit
readout: kon (M⁻¹ s⁻¹)
Number in M⁻¹ s⁻¹, nothing else.

-- ask I am curious: what kon value has been reported for 4H6-H1K2-IgG4 (antibody, V domains shown, Humanized) VH: QVQLQESGPGLVKPSQTLSLTCTVSGDSVSSGYWNWIRKHPGKKLEWIGFISYSGSTYYTPSLKSRVTISRDTSKNQFSLKLSSVTAADTAVYYCARFRRYDDGVDYWGQGTLVTVSS VL: DIQMTQSPSAMSASVGDRVTITCRASHEISGYLSWIQQKPGGTIKRLINAASTLASGVPSRFSGSRSGTEFTLTISSLQPEDFADYYCLQYSSYPWTFGGGTKLEIK ?
-- reply 386000

-- ask I am curious: what kon value has been reported for 4H6-H3K4-IgG4 (antibody, V domains shown, Humanized) VH: EVQLQESGPGLVKPSQTLSLTCTVSGDSVSSGYWNWIRKHPGKKLEYMGFISYSGSTYYTPSLKSRITISRDTSKNQFSLKLSSVTAADTAVYFCARFRRYDDGVDYWGQGTLVTVSS VL: DIQMTQSPSAMSASVGDRVTLTCRASHEISGYLSWIQQKPGGTIKRLINAASTLASGVPSRFSGSRSGTEYTLTISSLQPEDFADYYCLQYSSYPWTFGGGTKLEIK ?
-- reply 298000

-- ask I am curious: what kon value has been reported for 4H6-mHvKv-IgG1 (antibody, V domains shown, Chimeric) VH: EVKLQESGPSLVKPSQTLSLTCSVTGDSVSSGYWNWIRKFPGNKLEYMGFISYSGSTYYTPSLKSRISITRDTSKNQFYLQLNSVTTEDTATYFCARFRRYDDGVDYWGQGTTLTVSS VL: DIQMTQSPSSLSASLGERVSLTCRASHEISGYLSWIQQKPDGTIKRLINAASTLASGVPKRFSGSRSGSEYSLTINSLESEDFADYYCLQYSSYPWTFGGGTKLEIK ?
-- reply 561000
